# testProtocol: Example 7: Phase III clinical study, plasma pharmacokinetics of TP-1
# Assay type: in vivo, human
# testParameters: human, plasma, olopatadine in plasma, patients receiving TP-1, Day 8 (steady state); read-out: AUCtau, Min-Max
measure: AUC

**Query** Which measured AUC value corresponds to "CN(C)CC/C=C1/c2ccccc2COc2ccc(CC(=O)O)cc21" ?
**Result** 0.0534 to 0.138 µg·h/mL

###

# testProtocol: Example 7: Phase III clinical study, plasma pharmacokinetics of TP-1
# Assay type: in vivo, human
# testParameters: human, plasma, mometasone furoate in plasma, patients receiving TP-1, Day 1; read-out: AUCtau, Geo Mean (Geo CV%)
measure: AUC (ng·h/mL)
Answers are plain numbers, in ng·h/mL.

**Query** Which measured AUC value corresponds to C[C@@H]1C[C@H]2[C@@H]3CCC4=CC(=O)C=C[C@]4(C)[C@@]3(Cl)[C@@H](O)C[C@]2(C)[C@@]1(OC(=O)c1ccco1)C(=O)CCl [Mometasone furoate] ?
**Result** 0.0262
